The measured values listed here are drawn from patent US20230399287A1.

Assay: Hepatocyte stability assay (human)
Format: in vitro ADME
Conditions: human, cryopreserved hepatocytes, 10 μM compound, 60 min, read-out: T½
metric name: half-life at 10 μM (h)

Below are worked cases with known answers.
# smiles record, endpoint result
records = [
    ("C=C(CC(=O)OC1(c2ccc(C#N)cc2)CCC1)C(=O)O", 5.65),
    ("C=C(CC(=O)OC1(c2ccc(-c3ccc(C(F)(F)F)cc3)cc2)CCC1)C(=O)O", 0.1),
    ("C=C(CC(=O)OC1(c2ccc(C(F)(F)F)c(F)c2)CCC1)C(=O)O", 2.62),
]

[P] C=C(C(=O)O)C(C)(C)C(=O)OC1(c2ccc(C(F)(F)F)cn2)CCC1
[Q] C=C(CC(=O)OC1(c2ccc(C(F)(F)F)cc2)CC1)C(=O)O
[R] C/C(=C\C(=O)OC1(c2ccc(C(F)(F)F)cc2)CCC1)C(=O)O
[S] C=C(CC(=O)OC1(c2ccc(SC(F)(F)F)cc2)CCC1)C(=O)O
# input Rank the 4 molecules: largest half-life at 10 μM first, smallest last. Please list each label once, in the requested order.
# output Q, P, S, R
(Q: 3.62 h, P: 2.3 h, S: 1.52 h, R: 0.917 h)
